Reported IC50 for target or system UniProtKB P19821, by entry.
Sequence (P19821 whole entry): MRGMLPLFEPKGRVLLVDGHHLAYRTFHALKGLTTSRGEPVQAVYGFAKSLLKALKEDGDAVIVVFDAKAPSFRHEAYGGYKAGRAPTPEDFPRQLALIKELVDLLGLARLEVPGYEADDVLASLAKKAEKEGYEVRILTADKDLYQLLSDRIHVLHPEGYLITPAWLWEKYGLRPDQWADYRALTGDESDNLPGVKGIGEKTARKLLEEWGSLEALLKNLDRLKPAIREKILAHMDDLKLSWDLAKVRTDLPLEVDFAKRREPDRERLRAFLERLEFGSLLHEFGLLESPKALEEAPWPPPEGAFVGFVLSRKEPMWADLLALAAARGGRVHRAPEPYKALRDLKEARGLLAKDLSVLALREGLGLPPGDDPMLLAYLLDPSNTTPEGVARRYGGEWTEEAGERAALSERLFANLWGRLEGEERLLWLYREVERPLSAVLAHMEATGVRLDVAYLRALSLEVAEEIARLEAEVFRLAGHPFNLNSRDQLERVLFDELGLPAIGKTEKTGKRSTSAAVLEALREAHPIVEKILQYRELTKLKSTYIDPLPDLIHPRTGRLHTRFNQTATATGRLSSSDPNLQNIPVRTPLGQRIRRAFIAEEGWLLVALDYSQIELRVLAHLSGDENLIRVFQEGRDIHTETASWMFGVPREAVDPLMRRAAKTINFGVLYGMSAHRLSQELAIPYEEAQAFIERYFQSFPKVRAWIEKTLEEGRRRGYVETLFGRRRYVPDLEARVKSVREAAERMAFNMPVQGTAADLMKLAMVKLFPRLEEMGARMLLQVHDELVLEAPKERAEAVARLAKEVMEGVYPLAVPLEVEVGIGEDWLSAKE
// units = µM; emit number, no label

Field: example entries. Status: answers known.
Record lookup: for UniProtKB P19821, what IC50 belongs to OC[C@H]1O[C@@H](O[C@@H]2OC=C[C@H]3[C@H](O)[C@@H]4O[C@]4(CO)[C@@H]23)[C@H](O)[C@@H](O)[C@@H]1O [CATALPOL] ?
47.8

Record lookup: for UniProtKB P19821, what IC50 belongs to C[C@]1(O)C[C@@H](O)[C@]2(O)C=CO[C@@H](O[C@@H]3O[C@H](CO)[C@@H](O)[C@H](O)[C@H]3O)[C@@H]21 [HARPAGIDE] ?
417

Proceeding to the next molecule to report its IC50.
Record lookup: for UniProtKB P19821, what IC50 belongs to CC(=O)O[C@@]1(C)C[C@@H](O)[C@]2(O)C=CO[C@@H](O[C@@H]3O[C@H](CO)[C@@H](O)[C@H](O)[C@H]3O)[C@@H]21 ?
214
